study-target: human α2β3γ2 receptors (Homo sapiens (Human), UniProt P18507+P47869)
test-summary: 3H-flunitrazepam competition binding, human α2β3γ2 GABAA receptor
condition-label: HEK293 cell membranes, 1 nM 3H-flunitrazepam; read-out: Ki α2
Known Ki of a selection of compounds
Report the figure in nM without appending any unit label.

compound | Ki (nM)
Cc1nnn(-c2ccc(C(F)F)cc2)c1COc1ccc(N2CCNC2=O)nn1 [Example 19] | 10.4
O=C1CN(c2ccc(OCc3c(CO)nnn3-c3ccc(C(F)F)cc3)nn2)CCN1 [Example 80] | 22.7
Cc1nnn(-c2ccc(C(F)F)cc2)c1COc1ccc(N2CCN(C)C2=O)nn1 [Example 24] | 17
N#Cc1nnn(-c2ccc(C(F)F)cc2)c1COc1ccc(N2CCNC(=O)C2)nn1 [Example 78] | 45.9
Cc1nnn(-c2ccc(C(F)F)cc2)c1COc1ccc(N2CC(=O)NC(C)(C)C2)nn1 [Example 7] | 26.2
Cc1nnn(-c2ccc(C(F)F)cc2)c1COc1ccc(N2CCN3c4ccccc4NC(=O)[C@@H]3C2)nn1 [Example 122] | 149

The recorded Ki for entry Cc1nnn(-c2ccc(C(F)F)cc2)c1COc1ccc(N2CC(=O)NC3(CC3)C2)nn1 [Example 8] equals 22.2

###

study-target: α5-GABAA receptor (α5, β3, γ2 subunits) (Homo sapiens (Human), UniProt P18507+P31644)
test-summary: Whole cell patch clamp, inverse agonist efficacy in HEK293 cells expressing α5-GABAA receptor
Type: cell-based
condition-label: HEK293, drug 100 nM, GABA 0.05 μM, −60 mV; read-out: Compound inverse agonist efficacy %
Is inhibition at 0.1 µM at least 50%? Then rule met. If not, rule not met.

Sample answers from the record:
molecule | answer-label
Cc1nnn(-c2ccc(C(F)F)cc2)c1COc1ccc(N2CCN(CC3CCOC3)C(=O)C2)nn1 (centres unmarked) [Example 98] | rule met
Cc1ccc(-n2nnc(C)c2COc2ccc(N3CCN4CCNC(=O)[C@@H]4C3)nn2)cc1 [Example 129] | rule met

Could you please find out whether Cc1nnn(-c2ccc(C(F)F)cc2)c1COc1ccc(N2CCN(C3CCOC3)C(=O)C2)nn1 (centres unmarked) [Example 58] has inhibition at 0.1 µM that meets 50% or exceeds it? rule not met

Could you please find out whether CNC(=O)[C@@H]1CN(c2ccc(OCc3c(C)nnn3-c3ccc(C(F)F)cc3)nn2)CCN1 [Example 30] has inhibition at 0.1 µM that meets 50% or exceeds it? rule not met

Could you please find out whether Cc1nnn(-c2ccc(C(F)F)cc2)c1COc1ccc(N2CC(C(=O)NC3CCN(C)CC3)C2)nn1 [Example 46] has inhibition at 0.1 µM that meets 50% or exceeds it? rule not met

Could you please find out whether Cc1nnn(-c2ccc(C(F)F)cc2)c1COc1ccc(N2CC(=O)NC(=O)C2)nn1 [Example 5] has inhibition at 0.1 µM that meets 50% or exceeds it? rule met

Could you please find out whether Cc1nnn(-c2ccc(C(F)F)cc2)c1COc1ccc(N2CCN3CC(CC(C)C)NC(=O)[C@@H]3C2)nn1 (single isomer, unassigned) [Example 208] has inhibition at 0.1 µM that meets 50% or exceeds it? rule met

###

Known pKi of a selection of molecules
study-target: human α5β3γ2 receptors (α5-GABAA receptor) (Homo sapiens (Human), UniProt P18507+P31644)
test-summary: 3H-flunitrazepam competition binding, human α5β3γ2 GABAA receptor
condition-label: HEK293 cell membranes, 1 nM 3H-flunitrazepam; read-out: α5-GABAAR Ki
pKi here is simply -log10 of the concentration when that concentration is written in mol/L.

sample-smiles | readout-value
Cc1nnn(-c2ccc(C(F)F)cc2)c1COc1ccc(N2CCNCC2=O)nn1 | 8.05

The recorded pKi for entry Cc1nnn(-c2ccc(C(F)F)cc2)c1COc1ccc(N2CC(C(=O)O)C2)nn1 equals 7.91

The recorded pKi for entry Cc1nnn(-c2ccc(C(F)F)cc2)c1COc1ccc(N2CCC2=O)nn1 equals 8.67
